Every entry's value here was drawn from patent US20250195521A1.

Target: NRAS G12C (Homo sapiens (Human), UniProt P01111+P62937, G12C)
Sequence (P01111 whole entry G12C): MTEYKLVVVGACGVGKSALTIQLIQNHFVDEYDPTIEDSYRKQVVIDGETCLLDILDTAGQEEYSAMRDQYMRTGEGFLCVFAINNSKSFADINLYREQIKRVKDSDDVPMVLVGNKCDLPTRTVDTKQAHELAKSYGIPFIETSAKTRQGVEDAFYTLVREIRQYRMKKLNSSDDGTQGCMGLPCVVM
Sequence (P62937 whole entry): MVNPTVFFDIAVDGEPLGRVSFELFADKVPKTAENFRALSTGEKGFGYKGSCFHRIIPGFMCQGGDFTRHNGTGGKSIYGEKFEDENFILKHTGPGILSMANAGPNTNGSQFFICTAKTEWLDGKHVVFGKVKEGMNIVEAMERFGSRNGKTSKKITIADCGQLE
Experiment: Ras-Raf disruption/FRET/MOA assay (BRAF RBD, Cyclophilin A)
Assay type: biochemical
Conditions: read-out: NRAS G12C FRET data IC50
pIC50: −log10 of the molar value.

[
  {
    "compound": "CCn1c(-c2cnccc2COC)c2c3cc(ccc31)-c1cc(O)cc(c1)C[C@H](NC(=O)[C@H](C(C)C)N(C)C(=O)[C@H]1CCN(C3COC3)C1)C(=O)N1CCC[C@H](N1)C(=O)OCC(C)(C)C2 [Compound A51]",
    "assay-target": "NRAS G12C (Homo sapiens (Human), UniProt P01111+P62937, G12C)",
    "pIC50": "5.00 to 6.00"
  },
  {
    "compound": "CCn1c(-c2cccnc2[C@H](C)OC)c2c3cc(ccc31)-c1csc(n1)C[C@H](NC(=O)[C@H](C(C)C)N(C)C(=O)N1CC3(CC(N(C)C(C)C)C3)C1)C(=O)N1CCC[C@H](N1)C(=O)OCC(C)(C)C2 [Compound A485]",
    "assay-target": "NRAS G12C (Homo sapiens (Human), UniProt P01111+P62937, G12C)",
    "pIC50": "6.00 to 7.00"
  },
  {
    "compound": "CCn1c(-c2cccnc2[C@H](C)OC)c2c3cc(ccc31)-c1csc(n1)C[C@H](NC(=O)[C@H](C(C)C)N(C)C(=O)N1CC([C@H](C)COC)C1)C(=O)N1CCC[C@H](N1)C(=O)OCC(C)(C)C2 [Compound A533]",
    "assay-target": "NRAS G12C (Homo sapiens (Human), UniProt P01111+P62937, G12C)",
    "pIC50": "7.00 to 8.00"
  },
  {
    "compound": "CCn1c(-c2cccnc2[C@H](C)OC)c2c3cc(ccc31)-c1cc(O)cc(c1)C[C@H](NC(=O)[C@H](C(C)C)N(C)C(=O)[C@H]1OCC[C@H]1N)C(=O)N1CCC[C@H](N1)C(=O)OCC(C)(C)C2 [Compound A420]",
    "assay-target": "NRAS G12C (Homo sapiens (Human), UniProt P01111+P62937, G12C)",
    "pIC50": "6.00 to 7.00"
  },
  {
    "compound": "CCn1c(-c2cccnc2[C@H](C)OC)c2c3cc(ccc31)-c1csc(n1)C[C@H](NC(=O)[C@H](C(C)C)N(C)C(=O)N1CC[C@@H](F)[C@H](N)C1)C(=O)N1CCC[C@H](N1)C(=O)OCC(C)(C)C2 [Compound A559]",
    "assay-target": "NRAS G12C (Homo sapiens (Human), UniProt P01111+P62937, G12C)",
    "pIC50": "7.00 to 8.00"
  },
  {
    "compound": "CCn1c(-c2cccnc2[C@H](C)OC)c2c3cc(ccc31)-c1csc(n1)C[C@H](NC(=O)[C@H](C(C)C)N(C)C(=O)N1CC(OC(F)(F)F)C1)C(=O)N1CCC[C@H](N1)C(=O)OCC(C)(C)C2 [Compound A330]",
    "assay-target": "NRAS G12C (Homo sapiens (Human), UniProt P01111+P62937, G12C)",
    "pIC50": "7.00 to 8.00"
  },
  {
    "compound": "CCn1c(-c2cccnc2[C@H](C)OC)c2c3cc(ccc31)-c1csc(n1)C[C@H](NC(=O)[C@H](C(C)C)N(C)C(=O)N1CC(N3CCC3)C1)C(=O)N1CCC[C@H](N1)C(=O)OCC(C)(C)C2 [Compound A295]",
    "assay-target": "NRAS G12C (Homo sapiens (Human), UniProt P01111+P62937, G12C)",
    "pIC50": "6.00 to 7.00"
  },
  {
    "compound": "CCn1c(-c2cccnc2[C@H](C)OC)c2c3cc(ccc31)-c1csc(n1)C[C@H](NC(=O)[C@H](C(C)C)N(C)S(=O)(=O)N1CC(OC)C1)C(=O)N1CCC[C@H](N1)C(=O)OCC(C)(C)C2 [Compound A322]",
    "assay-target": "NRAS G12C (Homo sapiens (Human), UniProt P01111+P62937, G12C)",
    "pIC50": "6.00 to 7.00"
  },
  {
    "compound": "CCn1c(-c2cccnc2[C@H](C)OC)c2c3cc(ccc31)-c1csc(n1)C[C@H](NC(=O)[C@H](C(C)C)N(C)C(=O)N1CC3(CCOCC3)C1)C(=O)N1CCC[C@H](N1)C(=O)OCC(C)(C)C2 [Compound A521]",
    "assay-target": "NRAS G12C (Homo sapiens (Human), UniProt P01111+P62937, G12C)",
    "pIC50": "6.00 to 7.00"
  }
]

###

Documented pIC50 across a set of compounds
Biological target: KRAS G12V (Homo sapiens (Human), UniProt P01116+P62937, G12V)
Sequence (P01116 other isoform, or with tags, fused parts or gaps G12V): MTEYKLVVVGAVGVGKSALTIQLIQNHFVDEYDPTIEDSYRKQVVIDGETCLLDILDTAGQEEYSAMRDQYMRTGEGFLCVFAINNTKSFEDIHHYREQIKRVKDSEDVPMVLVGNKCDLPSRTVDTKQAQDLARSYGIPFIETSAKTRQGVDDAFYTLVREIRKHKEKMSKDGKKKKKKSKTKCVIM
Sequence (P62937 whole entry): as the sequence (P62937 whole entry) above
Assay: Ras-Raf disruption/FRET/MOA assay (BRAF RBD, Cyclophilin A)
Type: biochemical
Conditions: read-out: KRAS G12V FRET IC50
pIC50: −log10 of the molar value.

[
  {
    "compound": "CCn1c(-c2cccnc2[C@H](C)OC)c2c3cc(ccc31)-c1cc(O)cc(c1)C[C@H](NC(=O)C1CCC3C1C3(F)F)C(=O)N1CCC[C@H](N1)C(=O)OCC(C)(C)C2 (some centres unmarked)",
    "pIC50": "5.00 to 6.00"
  },
  {
    "compound": "CCn1c(-c2cccnc2[C@H](C)OC)c2c3cc(ccc31)-c1cc(O)cc(c1)C[C@H](NC(=O)C13CCCC1C3(F)F)C(=O)N1CCC[C@H](N1)C(=O)OCC(C)(C)C2 (some centres unmarked)",
    "pIC50": "5.00 to 6.00"
  },
  {
    "compound": "CCn1c(-c2cccnc2[C@H](C)OC)c2c3cc(ccc31)-c1cc(O)cc(c1)C[C@H](NC(=O)[C@H](C(C)C)N(C)C(=O)[C@H]1CCCC[C@H]1N)C(=O)N1CCC[C@H](N1)C(=O)OCC(C)(C)C2",
    "pIC50": "6.00 to 7.00"
  },
  {
    "compound": "CCn1c(-c2cccnc2[C@H](C)OC)c2c3cc(ccc31)-c1cc(O)cc(c1)C[C@H](NS(=O)(=O)c1cn(C)c(C)n1)C(=O)N1CCC[C@H](N1)C(=O)OCC(C)(C)C2",
    "pIC50": "< 5.00"
  },
  {
    "compound": "CCN(CC)C(=O)N(C)[C@H](C(=O)N[C@H]1Cc2nc(cs2)-c2ccc3c(c2)c(c(-c2cccnc2[C@H](C)OC)n3CC)CC(C)(C)COC(=O)[C@@H]2CCCN(N2)C1=O)C(C)C",
    "pIC50": "6.00 to 7.00"
  }
]

###

Molecular target: KRAS G13D (Homo sapiens (Human), UniProt P01116+P62937, G13D)
Sequence (P01116 other isoform, or with tags, fused parts or gaps G13D): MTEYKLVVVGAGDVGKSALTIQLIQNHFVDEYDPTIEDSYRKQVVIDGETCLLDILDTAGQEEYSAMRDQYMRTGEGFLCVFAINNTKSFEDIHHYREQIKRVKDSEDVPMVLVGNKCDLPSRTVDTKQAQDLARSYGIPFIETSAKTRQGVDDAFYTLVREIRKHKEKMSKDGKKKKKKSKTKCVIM
Sequence (P62937 whole entry): as the sequence (P62937 whole entry) above
Assay: Ras-Raf disruption/FRET/MOA assay (BRAF RBD, Cyclophilin A)
Format: biochemical
Conditions: read-out: KRAS G13D FRET data IC50
Documented IC50 across a set of compounds
reported-endpoint: IC50

[
  {
    "line-notation": "CCn1c(-c2cccnc2[C@H](C)OC)c2c3cc(ccc31)-c1cc(O)cc(c1)C[C@H](NC(=O)[C@H](C(C)C)N(C)C(=O)[C@H]1C[C@H]1O)C(=O)N1CCC[C@H](N1)C(=O)OCC(C)(C)C2",
    "value-reported": "100 to 1000 nM"
  },
  {
    "line-notation": "CCn1c(-c2cccnc2[C@H](C)OC)c2c3cc(ccc31)-c1cc(O)cc(c1)C[C@H](NC(=O)[C@H](C(C)C)N(C)C(=O)C1CNCCNC1)C(=O)N1CCC[C@H](N1)C(=O)OCC(C)(C)C2",
    "value-reported": "10 to 100 nM"
  }
]

###

Documented IC50 across a set of compounds
Target: KRAS G12C (Homo sapiens (Human), UniProt P01116+P62937, G12C)
Sequence (P01116-2 other isoform, or with tags, fused parts or gaps G12C): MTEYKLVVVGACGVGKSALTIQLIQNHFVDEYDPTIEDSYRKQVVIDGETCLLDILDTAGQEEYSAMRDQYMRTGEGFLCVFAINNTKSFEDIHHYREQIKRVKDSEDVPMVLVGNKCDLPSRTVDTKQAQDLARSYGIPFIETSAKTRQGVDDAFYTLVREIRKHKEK
Sequence (P62937 whole entry): as the sequence (P62937 whole entry) above
Assay: Ras-Raf disruption/FRET/MOA assay, KRAS G12C
Type: biochemical
reported-endpoint: IC50

[
  {
    "line-notation": "CCn1c(-c2cnccc2COC)c2c3cc(ccc31)-c1cc(O)cc(c1)C[C@H](NC(=O)[C@H](C(C)C)N(C)C(=O)CN(C)C(=O)[C@@H]1N[C@H]1c1ccc(OC)cc1)C(=O)N1CCC[C@H](N1)C(=O)OCC(C)(C)C2",
    "value-reported": "0.01 to 0.1 µM"
  },
  {
    "line-notation": "CCn1c(-c2cccnc2COC)c2c3cc(ccc31)-c1cc(O)cc(c1)C[C@H](NC(=O)[C@H](C(C)C)N(C)C(=O)CCNC(=O)NCCCl)C(=O)N1CCC[C@H](N1)C(=O)OCC(C)(C)C2",
    "value-reported": "1 to 10 µM"
  },
  {
    "line-notation": "CCn1c(-c2cnccc2COC)c2c3cc(ccc31)-c1cc(O)cc(c1)C[C@H](NC(=O)[C@H](C(C)C)N(C)C(=O)CN(C)C(=O)[C@@H]1N[C@@H]1C)C(=O)N1CCC[C@H](N1)C(=O)OCC(C)(C)C2",
    "value-reported": "0.01 to 0.1 µM"
  },
  {
    "line-notation": "CCn1c(-c2cccnc2[C@H](C)OC)c2c3cc(ccc31)-c1cc(O)cc(c1)C[C@H](NC(=O)[C@H](C(C)C)N(C)C(=O)[C@@]1(C)CCCN1C(=O)[C@H]1CN1)C(=O)N1CCC[C@H](N1)C(=O)OCC(C)(C)C2",
    "value-reported": "0.01 to 0.1 µM"
  }
]
